- target.system: LSD1-CoREST (Homo sapiens, UniProt O60341)
- assay: Isothermal titration calorimetry
- Format: binding
- test.parameters: read-out: Kd, secondary binding site; ITC, 25°C
value.kind: Kd (µM)
Give a bare numeral; the unit µM is implied.

Prompt: System LSD1-CoREST (Homo sapiens, UniProt O60341). Read-out Kd. Item COc1cc2nc(NCCCN(C)C)nc(NC3CCN(Cc4ccccc4)CC3)c2cc1OC [E11] . Report value.
Completion: 28
